For each record, write down the corresponding pKi.
Molecular target: MDM2 (Homo sapiens, UniProt Q00987)
Sequence (Q00987 1-125): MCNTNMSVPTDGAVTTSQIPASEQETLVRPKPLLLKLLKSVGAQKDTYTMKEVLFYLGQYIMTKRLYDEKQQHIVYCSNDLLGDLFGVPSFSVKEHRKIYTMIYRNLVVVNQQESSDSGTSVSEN
Experiment: Competitive fluorescence polarization assay for MDM2
Type: binding
Details: competitive FP assay, MDM2; read-out: Ki (MDM2)
pKi: −log10 of the molar value. Where a SMILES comes first, the peptide text is derived from it. Bridges are numbered along the chain shown (N, C = ends). [ ]: non-standard residue; d: D form. R8 = C=CCCCCCC[C@@](C)(N)C(=O)O; Cba = N[C@@H](CC1CCC1)C(=O)O; S5 = C=CCCC[C@](C)(N)C(=O)O

MOLECULE	pKi
CC(=O)N[C@@H](CC(C)C)C(=O)N[C@H](C(=O)N[C@@H](Cc1ccccc1)C(=O)N[C@]1(C)CCCCCCC=CCCC[C@@](C)(C(=O)N[C@@H](CO)C(=O)N[C@@H](C)C(=O)N[C@@H](Cc2ccccc2)C(=O)N[C@H](C)C(N)=O)NC(=O)[C@H](CC2CCC2)NC(=O)[C@H](CCC(N)=O)NC(=O)[C@H](C)NC(=O)[C@H](Cc2c[nH]c3ccccc23)NC(=O)[C@H](Cc2ccc(O)cc2)NC(=O)[C@H](CCC(=O)O)NC1=O)[C@@H](C)O [compound 257] (Ac-LTF[R8]EYWAQ[Cba][S5]SAF[dA]-NH2; staple 4-11)	> 8.00

Now take the following molecule into account.
Look up pKi for this molecule: CC[C@H](C)[C@H](NC(C)=O)C(=O)N[C@H](C(=O)N[C@@H](Cc1ccccc1)C(=O)N[C@]1(C)CCCCCCC=CCCC[C@@](C)(C(=O)N[C@@H](C)C(=O)N[C@@H](Cc2c[nH]cn2)C(=O)N[C@@H](Cc2ccccc2)C(=O)N[C@@H](C)C(N)=O)NC(=O)[C@H](CC(C)C)NC(=O)[C@H](CCC(N)=O)NC(=O)[C@H](C(C)C)NC(=O)[C@H](Cc2c[nH]c3ccccc23)NC(=O)[C@H](Cc2c[nH]cn2)NC(=O)[C@H](CCC(=O)O)NC1=O)[C@@H](C)O (single isomer, unassigned) [compound 194]
> 8.00

---

Test system: SJSA-1 cells
Assay: Cell lysis by peptidomimetic macrocycles (LDH release)
Assay type: cell-based
Conditions: 6.25 uM, 1 h at 37C
Where a SMILES comes first, the peptide text is derived from it. Bridges are numbered along the chain shown (N, C = ends). [ ]: non-standard residue; d: D form. R8 = C=CCCCCCC[C@@](C)(N)C(=O)O; S5 = C=CCCC[C@](C)(N)C(=O)O
For each record, write down the corresponding 6.25 uM % Lysed cells (1 h LDH).
Give bare numbers, in %.

Return reported 6.25 uM % Lysed cells (1 h LDH) values for all items listed beneath this line.
1. CC(=O)N[C@@H](CC(C)C)C(=O)N[C@H](C(=O)N[C@@H](Cc1ccccc1)C(=O)N[C@]1(C)CCCCCCC=CCCC[C@@](C)(C(=O)N[C@@H](CO)C(=O)N[C@@H](C)C(=O)N[C@@H](C)C(N)=O)NC(=O)[C@H](C2CCCC2)NC(=O)[C@H](CCC(N)=O)NC(=O)[C@H](C)NC(=O)[C@H](Cc2c[nH]c3ccccc23)NC(=O)[C@H](Cc2ccc(O)cc2)NC(=O)[C@H](CCC(=O)O)NC1=O)[C@@H](C)O (single isomer, unassigned) [compound 150]
2. CC(=O)N[C@@H](CC(C)C)C(=O)N[C@H](C(=O)N[C@@H](Cc1ccccc1)C(=O)N[C@]1(C)CCCCCCC=CCCC[C@@](C)(C(=O)N[C@@H](C)C(=O)N[C@@H](Cc2c[nH]cn2)C(=O)N[C@@H](Cc2ccccc2)C(=O)N[C@@H](C)C(N)=O)NC(=O)[C@H](CC(C)C)NC(=O)[C@H](CCC(N)=O)NC(=O)[C@H](C)NC(=O)[C@H](Cc2c[nH]c3ccccc23)NC(=O)[C@H](Cc2c[nH]cn2)NC(=O)[C@H](C)NC1=O)[C@@H](C)O [compound 183] (Ac-LTF[R8]AHWAQL[S5]AHFA-NH2; staple 4-11)
3. CC(=O)N[C@@H](CC(C)C)C(=O)N[C@H](C(=O)N[C@@H](Cc1ccccc1)C(=O)N[C@]1(C)CCCCCCC=CCCC[C@@](C)(C(=O)N[C@@H](CO)C(=O)N[C@@H](C)C(=O)N[C@@H](C)C(N)=O)NC(=O)[C@H](CC(C)C)NC(=O)[C@H](CCC(N)=O)NC(=O)[C@H](C)NC(=O)[C@H](Cc2c[nH]c3ccccc23)NC(=O)[C@H](Cc2ccc(O)cc2)NC(=O)[C@H](C)NC1=O)[C@@H](C)O
4. CC(=O)N[C@@H](CC(C)C)C(=O)N[C@H](C(=O)N[C@@H](Cc1ccccc1)C(=O)N[C@]1(C)CCCCCCC=CCCC[C@@](C)(C(=O)N[C@@H](C)C(=O)N[C@@H](C)C(=O)N[C@@H](C)C(=O)N[C@@H](C)C(=O)N[C@H](C)C(N)=O)NC(=O)[C@H](CC(C)C)NC(=O)[C@H](CCC(N)=O)NC(=O)[C@H](C)NC(=O)[C@H](Cc2c[nH]c3ccccc23)NC(=O)[C@H](Cc2ccc(O)cc2)NC(=O)[C@H](C)NC1=O)[C@@H](C)O
5. CC(=O)N[C@@H](CC(C)C)C(=O)N[C@H](C(=O)N[C@@H](Cc1ccccc1)C(=O)N[C@]1(C)CCCCCCC=CCCC[C@@](C)(C(=O)N[C@@H](C)C(=O)N[C@@H](C)C(=O)N[C@@H](Cc2ccccc2)C(=O)N[C@H](C)C(N)=O)NC(=O)[C@H](CC(C)C)NC(=O)[C@H](CCC(N)=O)NC(=O)[C@H](C)NC(=O)[C@H](Cc2c[nH]c3ccccc23)NC(=O)[C@H](Cc2ccc(O)cc2)NC(=O)[C@H](CCC(=O)O)NC1=O)[C@@H](C)O (single isomer, unassigned) [compound 219]

−1
2
−2
2.5
0

---

Molecular target: MDMX (Homo sapiens, UniProt O15151)
Sequence (O15151 1-125): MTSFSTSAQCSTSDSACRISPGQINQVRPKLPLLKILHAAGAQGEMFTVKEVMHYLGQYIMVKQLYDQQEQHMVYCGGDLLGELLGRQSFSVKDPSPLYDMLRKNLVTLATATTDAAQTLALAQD
Test: Competitive fluorescence polarization assay for MDMX
Format: binding
Conditions: competitive FP assay, read-out: Ki (MDMX)
pKi: −log10 of the molar value. Where a SMILES comes first, the peptide text is derived from it. Bridges are numbered along the chain shown (N, C = ends). [ ]: non-standard residue; d: D form. R8 = C=CCCCCCC[C@@](C)(N)C(=O)O; S5 = C=CCCC[C@](C)(N)C(=O)O
For each record, write down the corresponding pKi.

COMPOUND	pKi
CC[C@H](C)[C@H](NC(=O)[C@H](C)NC(=O)[C@H](C)NC(=O)[C@]1(C)CCCC=CCCCCCC[C@@](C)(NC(=O)[C@H](Cc2ccccc2)NC(=O)[C@@H](NC(=O)[C@H](CC(C)C)NC(C)=O)[C@@H](C)O)C(=O)N[C@@H](C)C(=O)N[C@@H](Cc2ccc(C(=O)O)cc2)C(=O)N[C@@H](Cc2c[nH]c3ccccc23)C(=O)N[C@@H](C)C(=O)N[C@@H](CCC(N)=O)C(=O)N[C@@H](CC(C)C)C(=O)N1)C(=O)N[C@H](C)C(N)=O (single isomer, unassigned)	7.00 to 8.00

Now take the following compound into account.
Look up pKi for this compound: CC(=O)N[C@@H](CCC(=O)O)C(=O)N[C@H](C(=O)N[C@@H](Cc1ccccc1)C(=O)N[C@]1(C)CCCCCCC=CCCC[C@@](C)(C(=O)N[C@@H](CO)C(=O)N[C@@H](C)C(=O)N[C@@H](C)C(N)=O)NC(=O)[C@H](CC(C)C)NC(=O)[C@H](CCC(N)=O)NC(=O)[C@H](C)NC(=O)[C@H](Cc2c[nH]c3ccccc23)NC(=O)[C@H](Cc2ccc(O)cc2)NC(=O)[C@H](CCC(=O)O)NC1=O)[C@@H](C)O [compound 161] (Ac-ETF[R8]EYWAQL[S5]SAA-NH2; staple 4-11)
7.00 to 8.00

---

For each record, write down the corresponding % Helix 50% TFE compared to 50% TFE parent (CD).
Experiment: Circular dichroism (CD) analysis of alpha-helicity
Format: physicochemical
Details: 50% TFE
Where a SMILES comes first, the peptide text is derived from it. Bridges are numbered along the chain shown (N, C = ends). [ ]: non-standard residue; d: D form. R8 = C=CCCCCCC[C@@](C)(N)C(=O)O; S5 = C=CCCC[C@](C)(N)C(=O)O; Nle = CCCC[C@H](N)C(=O)O
Numbers only, in %.

In the examples that follow, each entry is paired with its recorded % Helix 50% TFE compared to 50% TFE parent (CD).
MOLECULE	UNIT_DESCRIPTOR	REPORTED_RESULT
CC(=O)N[C@@H](CC(C)C)C(=O)N[C@H](C(=O)N[C@@H](Cc1ccccc1)C(=O)N[C@]1(C)CCCCCCC=CCCC[C@@](C)(C(=O)N[C@@H](C)C(=O)N[C@@H](C)C(=O)N[C@@H](C)C(=O)N[C@@H](C)C(=O)N[C@H](C)C(N)=O)NC(=O)[C@H](CC(C)C)NC(=O)[C@H](CCC(N)=O)NC(=O)[C@H](C)NC(=O)[C@H](Cc2c[nH]c3ccccc23)NC(=O)[C@H](Cc2ccc(O)cc2)NC(=O)[C@H](C)NC1=O)[C@@H](C)O	%	131.2
CC(=O)N[C@@H](CC(C)C)C(=O)N[C@H](C(=O)N[C@@H](Cc1ccccc1)C(=O)N[C@]1(C)CCCCCCC=CCCC[C@@](C)(C(=O)N[C@@H](C)C(=O)N[C@@H](C)C(=O)N[C@@H](C)C(=O)N[C@H](C)C(N)=O)NC(=O)[C@H](CC(C)C)NC(=O)[C@H](CCC(N)=O)NC(=O)[C@H](C)NC(=O)[C@H](Cc2c[nH]c3ccccc23)NC(=O)[C@H](Cc2ccc(O)cc2)NC(=O)[C@H](C)NC1=O)[C@@H](C)O (single isomer, unassigned)	%	123.9

Now take the following molecule into account.
Look up % Helix 50% TFE compared to 50% TFE parent (CD) for this molecule: CCCC[C@H](NC(=O)[C@H](CCC(N)=O)NC(=O)[C@H](CCC(N)=O)NC(=O)[C@]1(C)CCCC=CCCCCCC[C@@](C)(NC(=O)[C@H](Cc2ccccc2)NC(C)=O)C(=O)N[C@@H](C)C(=O)N[C@@H](Cc2ccc(O)cc2)C(=O)N[C@@H](Cc2c[nH]c3ccccc23)C(=O)N[C@@H]([C@@H](C)O)C(=O)N[C@@H](C)C(=O)N[C@@H](CC(C)C)C(=O)N1)C(=O)N[C@@H](C(N)=O)C(C)C [compound 41] (Ac-F[R8]AYWTAL[S5]QQ[Nle][dV]-NH2; staple 2-9)
136
